System: HCT-116
Assay text: Cytotoxicity against human HCT116 cells after 72 hrs
Format: functional, cell-based
Recorded conditions: HCT-116, 72 h
Documented IC50 across a set of compounds

1. CC[C@H](C)[C@@H]1C(=O)O[C@H]1C(=O)N[C@H]1C[C@H]1[C@H](C)[C@@H](CCc1ccccc1)NC(=O)[C@H](C)NC(=O)OCc1ccccc1 > 10000 nM

Exercise: Requested field: IC50. Item: CC[C@H](C)[C@@H]1C(=O)O[C@H]1C(=O)N[C@H]1C[C@H]1[C@@H](C)[C@@H](CCc1ccccc1)NC(=O)[C@H](C)NC(=O)OCc1ccccc1
Solution: 630 nM

// provenance: ChEMBL document CHEMBL2401636
